# Test system: Rattus norvegicus
# measurementDescription: Ulcerogenicity in Rattus norvegicus albino (rat) at 0.9 mg/100 g/day, po qd for 3 successive days
# Type: toxicity, organism-based
# conditionParameters: in vivo
Provide the recorded UI for the entries that follow.
Format: numeric value only, no unit, no commentary.

Sure, the documented UI for "O=c1c2ccccc2nnn1Cc1nnc(Nc2ccccc2)o1" is 340

Sure, the documented UI for "CC(=O)c1ccc(NC(=O)Cn2nnc3ccccc3c2=O)cc1" is 130

Sure, the documented UI for "Cc1ccccc1NC(=O)Cn1nnc2ccccc2c1=O" is 240

Sure, the documented UI for "Cc1ccc(C)n1NC(=O)Cn1nnc2ccccc2c1=O" is 220

Sure, the documented UI for "Cc1cc(-c2ccccc2)n(C(=O)Cn2nnc3ccccc3c2=O)n1" is 120

Sure, the documented UI for "Cc1cc(C)n(C(=O)Cn2nnc3ccccc3c2=O)n1" is 140

Sure, the documented UI for "Cc1ccc(NC(=O)Cn2nnc3ccccc3c2=O)cc1" is 140

Sure, the documented UI for "O=C(Cn1nnc2ccccc2c1=O)Nc1ccccc1" is 300

Sure, the documented UI for "O=c1c2ccccc2nnn1Cc1nnc(Nc2ccccc2)s1" is 340

Sure, the documented UI for "COc1ccccc1NC(=O)Cn1nnc2ccccc2c1=O" is 210

Sure, the documented UI for "O=C(Cn1nnc2ccccc2c1=O)N/N=c1/scc(-c2ccccc2)n1-c1ccccc1" is 300

Sure, the documented UI for "COc1cccc(NC(=O)Cn2nnc3ccccc3c2=O)c1" is 240
